System: OVCAR-3 ovarian
test-method-notes: NCI-60 one-dose screen, 48 h (100 = growth as untreated, 0 = no growth, -100 = all killed)
experimental-parameters: 10 µM unless noted
Compounds without any hit were thinned out: in the full panel of roughly 83,000, 20% have a hit.
readout-type: growth (%)
Answer with a number only, understood to be in %.

Check out these entries, answers already filled in.
- entry-smiles: "COC(=O)c1c2c(c(C)[n+]([O-])c1C)C(=O)C=C(NCc1cccc(OC)c1)C2=O"
  meas-value: -51
- entry-smiles: "Cc1ccc2nc(NC(=O)CSC(=S)N3CCN(C)CC3)sc2c1"
  meas-value: 120
- entry-smiles: "C=C1CC[C@@H]2[C@@](C)(CCC[C@]2(C)C(=O)O)[C@@H]1CC[C@H](CO)CCO"
  meas-value: 76.4

Record Nc1cccc2c(=S)c3ccccc3[nH]c12 has OVCAR-3 ovarian growth equal to 91

Record O=C(Nc1nc2ccccc2[nH]1)C(=O)Nc1nc2ccccc2[nH]1 has OVCAR-3 ovarian growth equal to 101
